# Tested on: MILI (PIWIL2) piRISC loaded with piRNA #1 (26 nt);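 note: 1 nM active piRISC with 0.1 nM target library at 33 °C single turnover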
# experiment-summary: pre-steady-state target cleavage rate (min^-1); guide: piRNA #1 5'p-UGAGGUAGUAGGUUGUAUAGUAUCCA; higher = faster piRNA-guided slicing of the target
# setup-conditions: auxiliary factor: 500 nM mouse GTSF1

| monomer-sequence | result-qualifier | pre-steady-state target cleavage rate |
| --- | --- | --- |
| GGAGACCUAUCUAUACAACCUACUACAUCA | = | 0.051 |
| GGAGACCUAUGAUAUGUACCUACUUGCUCA | < | 0.0001 |
| GGAGACCUAUGUAAUCAACCUACUACCUCA | = | 0.00445 |
| GGAGACGAAACAAUACAACCUACUACCUCA | = | 0.167 |
| GGAGACGUUACUAUACAUCCUACUACCUCA | = | 0.293 |
| GGAGUGGAUUCUAUACAACCUACUACGUCA | = | 0.0598 |
| GGAGACCUAACUGAUACAACCUACUACCUCA | = | 0.183 |
| GGAGACCUUACUAUACAACCUACUACCAUCA | = | 0.162 |
| GGAGACCUAUGAAUACAACCUACAACCUCA | = | 0.0078 |
| GGAGAGGAUACUAUAGAACGUACUACCUCA | = | 0.00602 |
| GGAGACGAUACUAUACAACGUACUAGCUCA | = | 0.00418 |
| GGAGACCAUACUAUACUAGCUACUACCUCA | = | 0.182 |
| GGAGACCUAUGAUAUCAACCUACACCUCA | < | 0.0001 |

---

Reported values of pre-steady-state target cleavage rate for individual entries
# Test system: MILI (PIWIL2) piRISC loaded with piRNA #1 (26 nt);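 note: 1 nM active piRISC with 0.1 nM target library at 33 °C single turnover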
# experiment-summary: pre-steady-state target cleavage rate (min^-1); guide: piRNA #1 5'p-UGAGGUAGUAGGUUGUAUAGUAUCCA; MIWI and MILI are mouse PIWI proteins and EfPiwi is from a freshwater sponge; tags in brackets are library labels; higher = faster piRNA-guided slicing of the target
# setup-conditions: auxiliary factor: 500 nM mouse GTSF1
property: pre-steady-state target cleavage rate

| monomer-sequence | result-qualifier | endpoint-result |
| --- | --- | --- |
| GGAGACCUAACUAUACAAGCUACUACGUCA | = | 0.152 |
| GGAGACCUAUGAUAUCAAGCUACUACCACA | = | 0.00606 |
| GGAGACCAUACUAUAUCAACCUACUACCUCA | = | 0.0898 |
| GGAGACCUAUCUAUGCAACCUACUACCUCA | = | 0.122 |
| GGAGACCUAUGUAUACAACCUACGUACCUCA | = | 0.0295 |
| GGAGACGAUACUUUACAUCCUACUACCUCA | = | 0.257 |
| GGAGACCUAUCUAUACGACCUACUACCUCA | = | 0.0198 |
| GGAGACCUAUGAUAACAACUUACUACCUCA | = | 0.00545 |
| GGAGUGGAUACUAUACAACCUCUACCUCA | = | 0.0226 |
| GGAGACGAUACUAUUCAACCUACUACCUCA | = | 0.202 |
| GGAGACCUUUCUAUAGAACCUACUACCUCA | = | 0.0818 |
| GGAGACGAUACAAUACAACCUAGUACCUCA | = | 0.0665 |
| GGAGACCUAUGAUAUGUACCUACAAGCUCA | < | 0.0001 |
